Entries and their IC50 values follow.
- STUDY TARGET: Dihydroorotate dehydrogenase (quinone), mitochondrial (Homo sapiens)
- Sequence (Q02127 whole entry): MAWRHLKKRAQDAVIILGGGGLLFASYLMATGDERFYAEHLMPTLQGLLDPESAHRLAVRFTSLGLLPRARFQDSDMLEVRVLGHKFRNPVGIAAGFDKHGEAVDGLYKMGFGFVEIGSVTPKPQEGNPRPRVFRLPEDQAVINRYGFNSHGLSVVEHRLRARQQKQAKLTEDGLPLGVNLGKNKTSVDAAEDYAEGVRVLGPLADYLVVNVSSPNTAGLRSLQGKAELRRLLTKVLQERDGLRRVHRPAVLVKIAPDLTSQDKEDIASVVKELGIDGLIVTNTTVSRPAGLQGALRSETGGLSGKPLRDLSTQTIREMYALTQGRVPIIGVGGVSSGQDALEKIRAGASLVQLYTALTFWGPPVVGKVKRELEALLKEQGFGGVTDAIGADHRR
Numbers only; they are read as nM.

Past entries and their recorded results:
# COMPOUND, OUTCOME MEASURE, REPORTED
data = [
    ("Cc1n[nH]c(Cl)c1-n1cc(C(C)C)c2cc(-c3cn(C)c(C(C)(C)O)n3)c(F)cc2c1=O [WO2022070068, Example 16]", "IC50", 0.51),
    ("Cc1ccccc1-n1cc(C(C)C)c2cc(-c3cn(C)c([C@H](C)O)n3)c(F)cc2c1=O [WO2022070068, Example 10]", "IC50", 0.73),
]

Prompt line: Consider the compound COc1cc(-n2cc(C(C)C)c3cc(-c4cn(C)c(C(C)(C)O)n4)c(F)cc3c2=O)c(C)cn1 [WO2022070068, Example 25] and give its measured IC50.
Response line: 1.2

Prompt line: What would you report for Cc1ccccc1-n1cc(C(C)C)c2cc(-c3nc(CO)n(C)n3)c(F)cc2c1=O [WO2022070068, Example 9] ?
Response line: 2.6

Prompt line: What would you report for Cc1ccccc1-n1cc(C(C)C)c2cc(-c3cn(C)c([C@@H](C)O)n3)c(F)cc2c1=O [WO2022070068, Example 11] ?
Response line: 0.51

Prompt line: What would you report for Cc1ccccc1-n1nc(C(C)C)c2cc(-c3cn(C)c(C(C)(C)O)n3)c(F)cc2c1=O [WO2022070068, Example 14] ?
Response line: 0.45

Prompt line: What would you report for Cc1n[nH]c(Cl)c1-n1cc(C(C)C)c2cc(-c3nc(C(C)(C)O)n(C)n3)c(F)cc2c1=O [WO2022070068, Example 17] ?
Response line: 0.71

Prompt line: What would you report for CC(=O)c1nc(-c2cc3c(C(C)C)cn(-c4ccccc4C)c(=O)c3cc2F)nn1C [WO2022070068, Example 6] ?
Response line: 1.7
